# System Under Test: T1, C-terminal Hsp70-interacting protein (CHIP), human recombinant full length, wild type, tag-free (human, UniProt Q9UNE7 1-303)
# T1 construct: also called WT; wild-type CHIP; source: E. coli BL21, purified (Glutathion Sepharose 4B, PreScission protease, SEC on Superdex 200)
# T1 sequence (looked up): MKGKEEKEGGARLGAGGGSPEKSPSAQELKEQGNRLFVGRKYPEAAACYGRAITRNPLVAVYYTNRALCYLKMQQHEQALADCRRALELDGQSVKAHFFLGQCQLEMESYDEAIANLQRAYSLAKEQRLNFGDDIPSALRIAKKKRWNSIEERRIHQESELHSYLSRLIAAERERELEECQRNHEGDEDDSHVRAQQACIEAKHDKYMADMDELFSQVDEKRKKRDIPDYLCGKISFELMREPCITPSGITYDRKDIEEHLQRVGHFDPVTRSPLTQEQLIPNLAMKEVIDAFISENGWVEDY
# Protocol Description: ITC; 10 µM protein in the cell, 200 µM GPTIEEVD peptide in the syringe, 25 injections of 8 µl every 3 min, 37°C, HSP70 buffer (25 mM HEPES KOH pH 7.5, 150 mM KCl, 5 mM MgCl2, 5% glycerol, 1 mM DTT); independent binding model
# Measurement Context: both partners purified

- Binder: "GPTIEEVD (last eight residues of HSP70 (HSPA1A); also called HSP70 peptide; HSP70 C-terminal peptide; source: synthetic peptide (custom-synthetized by GenScript)) [C-terminal HSP70 octapeptide GPTIEEVD]"
  Unit Annotation: "µM"
  Kd: 5
